// data source = patent US20220010021A1

biological target: human FGFR1c + KLB receptor complex on HEK293 iLite FGF21 reporter cells (human, UniProt P11362 22-822; Q86Z14 1-1044); experiment: cell-based or functional assay
Sequence (P11362 22-822, chain 1 of 2): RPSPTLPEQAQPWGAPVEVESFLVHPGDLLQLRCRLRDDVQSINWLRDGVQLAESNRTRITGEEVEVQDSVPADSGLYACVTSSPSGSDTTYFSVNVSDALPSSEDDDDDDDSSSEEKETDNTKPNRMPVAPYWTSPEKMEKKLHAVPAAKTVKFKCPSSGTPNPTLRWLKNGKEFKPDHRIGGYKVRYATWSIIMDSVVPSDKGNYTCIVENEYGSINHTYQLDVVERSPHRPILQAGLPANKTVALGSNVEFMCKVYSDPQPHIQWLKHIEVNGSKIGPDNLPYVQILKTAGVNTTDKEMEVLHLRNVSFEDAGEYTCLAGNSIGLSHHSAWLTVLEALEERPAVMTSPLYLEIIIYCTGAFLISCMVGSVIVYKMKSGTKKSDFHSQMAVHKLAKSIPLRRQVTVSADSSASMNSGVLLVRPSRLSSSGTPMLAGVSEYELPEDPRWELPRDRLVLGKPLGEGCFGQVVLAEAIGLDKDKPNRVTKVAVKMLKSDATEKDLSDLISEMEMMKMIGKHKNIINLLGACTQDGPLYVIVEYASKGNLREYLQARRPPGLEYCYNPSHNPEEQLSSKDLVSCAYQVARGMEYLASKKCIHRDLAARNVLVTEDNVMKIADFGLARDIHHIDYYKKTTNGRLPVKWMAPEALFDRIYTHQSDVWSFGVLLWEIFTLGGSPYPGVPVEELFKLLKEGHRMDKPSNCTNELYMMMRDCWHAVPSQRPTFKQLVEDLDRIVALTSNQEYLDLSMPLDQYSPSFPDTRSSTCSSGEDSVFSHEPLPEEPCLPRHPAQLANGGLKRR
Sequence (Q86Z14 whole entry, chain 2 of 2): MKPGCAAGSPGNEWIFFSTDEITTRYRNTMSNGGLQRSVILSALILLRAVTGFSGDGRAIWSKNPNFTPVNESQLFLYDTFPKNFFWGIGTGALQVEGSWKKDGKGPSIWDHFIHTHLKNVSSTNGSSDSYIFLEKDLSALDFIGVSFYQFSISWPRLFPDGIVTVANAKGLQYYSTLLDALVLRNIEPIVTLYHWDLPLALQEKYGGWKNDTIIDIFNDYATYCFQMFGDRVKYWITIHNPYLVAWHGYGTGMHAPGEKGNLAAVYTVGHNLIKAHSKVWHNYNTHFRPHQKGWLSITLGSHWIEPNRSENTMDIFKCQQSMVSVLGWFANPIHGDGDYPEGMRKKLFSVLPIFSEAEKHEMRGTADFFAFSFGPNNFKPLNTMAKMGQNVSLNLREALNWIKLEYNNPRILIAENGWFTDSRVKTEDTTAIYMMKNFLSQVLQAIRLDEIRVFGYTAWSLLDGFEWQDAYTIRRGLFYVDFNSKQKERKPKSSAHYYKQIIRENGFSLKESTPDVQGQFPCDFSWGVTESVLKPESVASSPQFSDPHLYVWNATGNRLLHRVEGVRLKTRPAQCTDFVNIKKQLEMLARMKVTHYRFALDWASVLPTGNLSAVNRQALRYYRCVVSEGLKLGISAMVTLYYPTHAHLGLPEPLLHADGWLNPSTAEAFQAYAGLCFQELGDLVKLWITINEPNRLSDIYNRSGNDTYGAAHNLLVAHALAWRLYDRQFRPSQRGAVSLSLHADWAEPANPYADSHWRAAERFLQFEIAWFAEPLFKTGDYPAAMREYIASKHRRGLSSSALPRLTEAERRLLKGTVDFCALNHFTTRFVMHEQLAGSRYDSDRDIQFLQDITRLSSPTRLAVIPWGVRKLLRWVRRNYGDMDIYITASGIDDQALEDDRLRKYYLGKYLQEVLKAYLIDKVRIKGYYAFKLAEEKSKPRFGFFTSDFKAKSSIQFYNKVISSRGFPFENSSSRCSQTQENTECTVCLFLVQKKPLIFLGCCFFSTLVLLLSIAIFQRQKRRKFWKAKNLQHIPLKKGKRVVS
TEST_READOUT: Emax (%)
Answers are plain numbers, in %.

(Q) # input binder: Ab0310 (antibody, IgG4, V domains shown, IgG4 PE) VH: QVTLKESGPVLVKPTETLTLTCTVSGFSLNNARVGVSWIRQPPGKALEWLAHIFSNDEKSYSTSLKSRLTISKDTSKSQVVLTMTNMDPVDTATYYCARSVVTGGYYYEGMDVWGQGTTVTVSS VL: SYVLTQPPSVSVAPGQTARITCGGSNIGSESVHWYQQKPGQAPVLVVYDESDRPSGIPERFSGSNSGNTATLTISRVEAGDEADYYCQVWDGESDHVVFGGGTKLTVLG ; wanted: its Emax
(A) 1080

(Q) Please give the result for Ab0344 (antibody, IgG4, V domains shown, IgG4 PE) VH: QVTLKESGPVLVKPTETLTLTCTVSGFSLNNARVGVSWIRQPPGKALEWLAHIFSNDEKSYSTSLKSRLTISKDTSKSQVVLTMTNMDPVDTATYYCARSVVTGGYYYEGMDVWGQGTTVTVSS VL: SYVLTQPPSVSVAPGQTARITCGGSNIGSESVHWYQQKPGQAPVLVVYAASDRPSGIPERFSGSNSGNTATLTISRVEAGDEADYYCQVWEGSSDHVVFGGGTKLTVLG too.
(A) 958

Now examine the next entry.
(Q) What value of Emax has been reported for the following binder? Ab0462 (antibody, IgG4, V domains shown) VH: QVTLKESGPVLVKPTETLTLTCTVSGFSLTNARVGVSWIRQPPGKALEWLAHIFSNDEKSYSTSLKSRLTISKDTSKSQVVLTMTNMDPVDTATYYCARSVVTGGYYYEGMDVWGQGTTVTVSS VL: SYVLTQPPSVSVAPGQTARITCGGSNIGSESVHWYQQKPGQAPVLVVYEESDRPSGIPERFSGSNSGNTATLTISRVEAGDEADYYCQVWEGESDHVVFGGGTKLTVLG
(A) 1340
